assayText: activity coefficient (dimensionless); of the first substance listed, at infinite dilution; xn = mol fraction of the nth substance listed
setupConditions: 322.85 K; Liquid; Chromatography; x1 = 0

compound: C1CCCCCC1 [cycloheptane] + CCCC[N+](C)(CCCC)CCCC.O=S(=O)([N-]S(=O)(=O)C(F)(F)F)C(F)(F)F
activity coefficient: 12.4

compound: CC1CCCC1 [methylcyclopentane] + CCCCCCCCCC[N+](C)(C)C.O=S(=O)([N-]S(=O)(=O)C(F)(F)F)C(F)(F)F
activity coefficient: 2.99

compound: ClCCl [dichloromethane] + CCCC[N+](C)(CCCC)CCCC.O=S(=O)([N-]S(=O)(=O)C(F)(F)F)C(F)(F)F
activity coefficient: 0.66

compound: CCC(=O)CC [pentan-3-one] + CCCCCCCC[N+](C)(C)C.O=S(=O)([N-]S(=O)(=O)C(F)(F)F)C(F)(F)F
activity coefficient: 0.52

compound: c1ccncc1 [pyridine] + CCCCCCCC[N+](C)(C)C.O=S(=O)([N-]S(=O)(=O)C(F)(F)F)C(F)(F)F
activity coefficient: 0.45

compound: C=CCCCC [hex-1-ene] + CCCCCCCC[N+](C)(C)C.O=S(=O)([N-]S(=O)(=O)C(F)(F)F)C(F)(F)F
activity coefficient: 3.99

compound: CCC=O [propanal] + CCCCCCCC[N+](CCCCCCCC)(CCCCCCCC)CCCCCCCC.O=S(=O)([N-]S(=O)(=O)C(F)(F)F)C(F)(F)F
activity coefficient: 0.25

compound: CCCCCCCCCCC [undecane] + CCCCCCCCCC[N+](C)(C)C.O=S(=O)([N-]S(=O)(=O)C(F)(F)F)C(F)(F)F
activity coefficient: 12.4

compound: CCC(C)=O [butanone] + CCCC[N+](C)(CCCC)CCCC.O=S(=O)([N-]S(=O)(=O)C(F)(F)F)C(F)(F)F
activity coefficient: 0.4

compound: CCCCCCCC [octane] + CCCCCCCC[N+](CCCCCCCC)(CCCCCCCC)CCCCCCCC.O=S(=O)([N-]S(=O)(=O)C(F)(F)F)C(F)(F)F
activity coefficient: 1.73

compound: CCCCCCCCC [nonane] + CCCC[N+](C)(CCCC)CCCC.O=S(=O)([N-]S(=O)(=O)C(F)(F)F)C(F)(F)F
activity coefficient: 16.5

compound: CCCC(C)=O [pentan-2-one] + CCCCCCCC[N+](C)(C)C.O=S(=O)([N-]S(=O)(=O)C(F)(F)F)C(F)(F)F
activity coefficient: 0.57

compound: C1COCCO1 [1,4-dioxane] + CCCCCCCCCC[N+](C)(C)C.O=S(=O)([N-]S(=O)(=O)C(F)(F)F)C(F)(F)F
activity coefficient: 0.56

compound: C[N+](=O)[O-] [nitromethane] + CCCC[N+](C)(CCCC)CCCC.O=S(=O)([N-]S(=O)(=O)C(F)(F)F)C(F)(F)F
activity coefficient: 0.65
